Test Summary: Viability after 25,000 ppm gNO (Example 5), NHLF
Format: cell-based
Experimental Context: human, normal human lung fibroblast cells (NHLF), after 15 minutes of exposure
Observable: viability at 15 min, 25000 ppm (%)
Answers are plain numbers, in %.

What value of measured viability at 15 min, 25000 ppm is listed for [N]=O [gNO, nitric oxide] ?
30

----------
Test Summary: Viability after 25,000 ppm gNO (Example 5), NHLF
Assay type: cell-based
Experimental Context: human, normal human lung fibroblast cells (NHLF), 6 minutes
Description: The purpose of this example is to illustrate the effects on normal human cell lines compared to the effects on cancerous cell lines of high-dosage gNO. The above study was repeated. In addition to the A549, NCI-H23, NCI-H460, HTB-58, H2170 and H441 cells, four other cell lines were added—normal human bronchial epithelial cells (NHBE), normal human endothelial lung vascular cells (NHVE), normal human fibroblast cells (NHLF), and a squamous lung cancer cell line (H2170). […]
Observable: viability at 6 min, 25000 ppm

What value of measured viability at 6 min, 25000 ppm is listed for [N]=O [gNO, nitric oxide] ?
~30%

----------
Test Summary: Viability after 25,000 ppm gNO (Example 5), NHVE
Type: cell-based
Experimental Context: human, normal human endothelial lung vascular cells (NHVE)
Observable: viability at 6 min, 25000 ppm

What value of measured viability at 6 min, 25000 ppm is listed for [N]=O [gNO, nitric oxide] ?
< 10%
